System: MCF7 breast
Experiment: NCI-60 one-dose screen, 48 h (100 = growth as untreated, 0 = no growth, -100 = all killed)
Details: 10 µM unless noted
Method: Growth inhibition of the MCF7 human tumor cell line is measured as a screen for anti-cancer activity. Cells are grown in 96 well plates and exposed to the test compound for 48 hours. Compounds are tested at a single concentration, which is 10^-5 M for most compounds. The reported endpoint is percent growth (GI% or GIPRCNT), where numbers from 0 - 100% represent growth inhibition, and numbers from -100% - 0 represent cell death. For example, a value of 40 represents 60% growth inhibition. […]
The panel holds about 83,000 compounds, 20% with a hit somewhere; the sample as a whole holds those more often.
Binary call on growth with cut-off 40%: strictly below means Met, and equality or higher means Not met.

Determine if `COc1ccc(-c2nc3c(c(C)nn3-c3ccc(F)cc3)c(=O)[nH]2)cc1` shows growth strictly lower than 40%. Not met

Determine if Cc1ccc(-c2nc3ccc(Cl)cc3c(=O)n2N2C(=O)CSC2c2ccccc2Cl)cc1 (stereo not drawn) shows growth strictly lower than 40%. Not met

Determine if Cc1ccc(C)c2c1CCC2C(C)C (stereo not drawn) shows growth strictly lower than 40%. Not met

Determine if `C/C(=N/NC(N)=S)C(=O)O` shows growth strictly lower than 40%. Met

Determine if `NCCn1cc(-c2nc(-c3c[nH]c4ncccc34)cs2)c2ccccc21` shows growth strictly lower than 40%. Not met

Determine if `C/C(=N\Nc1cc(C)c2ccccc2n1)c1ccccn1` shows growth strictly lower than 40%. Met

Determine if `COc1ccc(NC(=O)c2ccoc2COc2ccccc2)cc1` shows growth strictly lower than 40%. Not met

Determine if `COc1cc2nc(Cl)nc(Nc3cccc(C(=O)/C=C/c4ccc(Br)cc4)c3)c2cc1OC` shows growth strictly lower than 40%. Met

Determine if `CN(C)c1ccc(N=C2C=CC(=O)C=C2)cc1` shows growth strictly lower than 40%. Not met

Determine if `Cc1ccc(Cc2cnc(NC(=O)/C=C/c3cccc(C)c3)s2)cc1` shows growth strictly lower than 40%. Met

Determine if c1ccc(C2Cc3ccccc3C2=NC2CCCCC2)cc1 (stereo not drawn) shows growth strictly lower than 40%. Not met

Determine if `NCCn1cc(-c2nc(-c3c[nH]c4ncccc34)cs2)c2cc(F)ccc21` shows growth strictly lower than 40%. Not met

Determine if `Cn1cc(-c2nc(-c3cn(C)c4ncccc34)cs2)c2cc(F)ccc21` shows growth strictly lower than 40%. Met

Determine if CC(=O)OC(C)COc1ccc(-c2ccccc2)cc1 (stereo not drawn) shows growth strictly lower than 40%. Not met

Determine if `Cn1cnc2c1c(=O)n(CCC(=O)Nc1ccc(F)cc1)c(=O)n2C` shows growth strictly lower than 40%. Not met

Determine if `COc1c(N)c2c(c([N+](=O)[O-])c1OC)C(=O)OC2` shows growth strictly lower than 40%. Not met

Determine if `C#CCn1c(C)cc(C)c(C#N)c1=O` shows growth strictly lower than 40%. Not met

Determine if `Nc1c(Cl)cc(N=Nc2ccccc2)cc1Cl` shows growth strictly lower than 40%. Met

Determine if COC(=O)C(N)CSC(c1ccccc1)(c1ccccc1)c1ccccc1 (stereo not drawn) shows growth strictly lower than 40%. Met

Determine if `CC(C)(C)CC(C)(C)c1ccc(OCCOCC[N+](C)(C)CC(=O)[O-])cc1` shows growth strictly lower than 40%. Not met

Determine if `O=C(N/N=C\c1c(O)ccc2ccccc12)C1CC1` shows growth strictly lower than 40%. Met

---

Would you mind telling me the reported growth of each entry?
Test system: SF-295 CNS
Assay: NCI-60 one-dose screen, 48 h (100 = growth as untreated, 0 = no growth, -100 = all killed)
Details: 10 µM unless noted
The panel holds about 83,000 compounds, 20% with a hit somewhere; the sample as a whole holds those more often.
Only the number, expressed in %, is required.

Sample `Cc1ccc(Cc2cnc(NC(=O)/C=C/c3cccc(C)c3)s2)cc1` — what was its growth? -13.6

Sample `CC(C)c1cc(C(=O)O)c(O)c(C(C)C)c1.CC(C)c1cc(C(=O)O)c(O)c(C(C)C)c1.[Mn]` — what was its growth? 107

Sample `C=C(C)[C@@H]1CC[C@]2(C(=O)N3CCCNCC3)CC[C@]3(C)[C@H](CC[C@@H]4[C@@]5(C)CCC(=O)C(C)(C)[C@@H]5CC[C@]43C)[C@@H]12` — what was its growth? 104

Sample `COc1cc2nc(Cl)nc(Nc3cccc(C(=O)/C=C/c4ccccc4)c3)c2cc1OC` — what was its growth? 69.5

Sample `O=C(O[C@@H]1Cc2c(O)cc(O)cc2O[C@@H]1c1cc(O)c(O)c(O)c1)c1cc(O)c2c(c1)OCO2` — what was its growth? 103

---

System: SW-620 colon
Assay: NCI-60 one-dose screen, 48 h (100 = growth as untreated, 0 = no growth, -100 = all killed)
Settings: 10 µM unless noted
About 83,000 compounds went through this panel and 20% of them were active in at least one assay; those are over-represented in the sample as a whole. The source made the active and inactive calls. How the source made its calls: active means growth percent below 10; inactive means the rest.
observed.property: growth

Sample `Cc1nc([P+](c2ccccc2)(c2ccccc2)c2ccccc2)c(Sc2sc(-c3ccccc3)nc2[P+](c2ccccc2)(c2ccccc2)c2ccccc2)o1` — what was its growth? 9.8% (active)

Sample `Cn1cc(-c2csc(-c3cn(CCN)c4ccc(F)cc34)n2)c2cccnc21` — what was its growth? 52.6% (inactive)

Sample `CC(=O)OC[C@]12CC[C@@H](/C(C)=N/O)[C@@H]1[C@H]1CC[C@@H]3[C@@]4(C)CCCNC(C)(C)[C@@H]4CC[C@@]3(C)[C@]1(C)CC2` — what was its growth? 80.3% (inactive)

Sample `COc1cc2c(cc1-c1c(C)noc1C)ncc1nc(C3CC3)n([C@H](C)COC(F)F)c12` — what was its growth? 62.7% (inactive)

Sample `O=C1CNCCN1` — what was its growth? 104% (inactive)

Sample `Cn1cc(-c2csc(-c3cn(CCCN4CCCCC4)c4ccccc34)n2)c2cccnc21` — what was its growth? -65.3% (active)

Sample O=C1CN(c2ccccc2)C(=O)C1C(=O)Nc1ccc(Cl)c(Cl)c1 (centres undefined) — what was its growth? 20.1% [100 µM] (inactive)

Sample `COc1cc(-c2c(C#N)c(-c3cccs3)nc3c2c(-c2ccccc2)nn3-c2ccccc2)ccc1O` — what was its growth? 88% (inactive)

Sample `Fc1ccc2c(c1)c(-c1nc(-c3c[nH]c4ncccc34)cs1)cn2CCCN1CCCCC1` — what was its growth? -34.9% (active)

---

Tested on: MCF7 breast
Test: NCI-60 one-dose screen, 48 h
Details: 10 µM unless noted
Compounds without any hit were thinned out: in the full panel of roughly 83,000, 20% have a hit. Activity calls are given as the source filed them. How the source made its calls: active means growth percent below 10; inactive means the rest.
Bench note: report the call from active, inactive

Please share the test call associated with `CC(C)=CCC/C(C)=C/CC/C(C)=C/CC/C(C)=C/CSC[C@H](NC(=O)CCCCCN1CCN(C)CC1)C(=O)NC1CCCCC1` . inactive

Please share the test call associated with `Cc1ccc2[nH]cc(-c3nc(-c4cn(C)c5ncccc45)cs3)c2c1` . inactive

Please share the test call associated with `Cn1cc(-c2csc(-c3c[nH]c4ccccc34)n2)c2cccnc21` . inactive

Please share the test call associated with `CC1(C)NCCC[C@]2(C)[C@H]3CC[C@@H]4[C@H]5[C@H](C(=O)/C=C/c6ccccn6)CC[C@]5(CO)CC[C@@]4(C)[C@]3(C)CC[C@@H]12` . inactive

Please share the test call associated with `Cc1cc(N2CCOCC2)nc(N(CCCNc2ccnc3cc(Cl)ccc23)Cc2ccco2)n1` . inactive

Please share the test call associated with `COc1ccc(C2(Cl)c3ccccc3N(c3ccccc3)c3ccccc32)cc1` . active

Please share the test call associated with `Nc1c(C(=O)Nc2cccc3ccccc23)sc2nc3c(cc12)CCCC3` . inactive

Please share the test call associated with `Cn1cccc1/C=C1/SC(=S)N(CCc2ccc(O)cc2)C1=O` . inactive

Please share the test call associated with `C=C(C)[C@@H]1CC[C@]2(C(=O)NNC(=O)c3cccnc3)CC[C@]3(C)[C@H](CC[C@@H]4[C@@]5(C)CCCNC(C)(C)[C@@H]5CC[C@]43C)[C@@H]12` . inactive

Please share the test call associated with `Cn1cc(-c2csc(-c3cn(C(=O)OC(C)(C)C)c4ccccc34)n2)c2cccnc21` . inactive

Please share the test call associated with `COc1ccc(/C=C(\C#N)c2cc3ccccc3n2C(C)=O)cc1` . inactive

Please share the test call associated with `CCN1CCN(C(=O)[C@]23CC[C@@H](C)[C@H](C)[C@H]2C2=CC[C@@H]4[C@@]5(C)C/C(=C/c6cccc(OC)c6OC)C(=O)C(C)(C)[C@@H]5CC[C@@]4(C)[C@]2(C)CC3)CC1` . inactive

Please share the test call associated with `NCCNc1nc(-c2ccccc2)nc2nc(-c3ccccc3)oc12` . inactive

Please share the test call associated with `O=S(=O)(NCCCNc1cc(-c2cn(-c3ccccc3)nc2-c2cccc(O)c2)ccn1)c1ccc(F)cc1` . inactive

Please share the test call associated with `Cc1cc(N2CCCC2)nc(N(CCNc2ccnc3cc(Cl)ccc23)Cc2ccco2)n1` . inactive

Please share the test call associated with COc1cccc2c1C(=O)c1c(O)c3c(c(O)c1C2=O)C[C@@](O)(C(=O)CO)C[C@@H]3OC1C[C@H](N)[C@H](O)[C@H](C)O1 (stereo partly drawn) . active

Please share the test call associated with `O=C1c2cccc3cccc(c23)C(=O)N1CC#Cc1ccc2c3c(cccc13)C(=O)N(CCN1CCNCC1)C2=O` . active

Please share the test call associated with `Fc1ccc2[nH]cc(-c3nc(-c4c[nH]c5ncccc45)cs3)c2c1` . inactive

Please share the test call associated with NC(=O)[C@@H]1CC2CCC1C2 (stereo partly drawn) . inactive

Please share the test call associated with `O=c1c(CNc2ccc(S(=O)(=O)Nc3ncccn3)cc2)coc2ccccc12` . inactive

Please share the test call associated with `CC(=O)Nc1cc(F)cc(C(F)(F)F)c1Cl` . inactive

Please share the test call associated with `Cn1cc(-c2nc(-c3c[nH]c4ncccc34)cs2)c2ccccc21` . inactive

Please share the test call associated with `O=S(=O)(NCCNc1cc(-c2cn(-c3ccccc3)nc2-c2cccc(O)c2)ccn1)c1ccccc1` . inactive

Please share the test call associated with `O=C1CNCCN1` . inactive

Please share the test call associated with NC(Cc1ccc(O)cc1)C(=O)N/N=C/c1ccccc1O (stereo not drawn) . inactive

Please share the test call associated with `COc1cc(/C=C/c2cc(/C=C/c3ccc(O)c(OC)c3)n(-c3ccccc3)c(=O)n2)ccc1O` . inactive

Please share the test call associated with `COc1cc2[nH]c(C(=O)c3cc(OC)c(OC)c(OC)c3)c(N)c2cc1C#CCO` . inactive

Please share the test call associated with CN(C)CCCC1(c2ccc(F)cc2)OCc2cc(-c3ccc(C(F)(F)F)nc3)ccc21 (stereo not drawn) . inactive

Please share the test call associated with `COC(=O)[C@]12CC[C@@H](C)[C@H](C)[C@@H]1C1=CC[C@@H]3[C@@]4(C)C[C@@H](OC(C)=O)[C@H](O)[C@@](C)(CO)[C@@H]4[C@H](O)C[C@@]3(C)[C@]1(C)CC2` . active

Please share the test call associated with `C=C(C)[C@@H]1CC[C@]2(CN)CC[C@]3(C)[C@H](CC[C@@H]4[C@@]5(C)CCC(=O)NC(C)(C)[C@@H]5CC[C@]43C)[C@@H]12` . inactive

Please share the test call associated with Nc1nc(Br)nc2c1ncn2C1CC(O)C(CO)O1 (stereo not drawn) . inactive

Please share the test call associated with `COc1ccc2c(c1)C/C(=C\c1cc(-c3cc(OC)c(OC)c(OC)c3)n[nH]1)C2=O` . inactive

Please share the test call associated with C#CCC(C)(O)/C=C/C1=C(C)CCCC1(C)C (stereo not drawn) . inactive

Please share the test call associated with `CC(C)(C)c1nc(-c2ccc(O)c(O)c2)cs1` . inactive

Please share the test call associated with `Nc1ncnc2nc(Br)[nH]c12` . inactive

Please share the test call associated with `CC(=O)n1c(/C(C#N)=C/c2ccc(N(C)C)cc2)cc2ccccc21` . inactive

Please share the test call associated with `O=C(NC1=CC(=O)c2ccccc2C1=O)c1ccccc1` . inactive

Please share the test call associated with `CN(C)c1ccc(N)c2ccccc12` . active
